- System: COG-LL-402h;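 note: ALL cell lines in 384-well plates, five doses spanning 10,000-fold, each plate scaled between vehicle and 100 µmol/L benzalkonium chloride controls, sDSS an adapted area-under-curve metric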
- assay text: selective drug sensitivity score (sDSS, relative to normal bone marrow) (sDSS (score)); higher = more potent and effective on the cell line relative to normal bone marrow cells
- condition details: 72 h
Given measured selective drug sensitivity score, output true (1) if it is greater than or equal to -0.2 and false (0) if not.

- molecule: "O=c1[nH]cc(F)c(=O)[nH]1 [Fluorouracil] (top concentration 10000 nM)"
  assigned label: "true (1)"

Ask: # check: selective drug sensitivity score of Cc1nc(C(=O)NCC(=O)O)c(O)c2ccc(Oc3ccccc3)cc12 [Roxadustat] (top concentration 10000 nM) is greater than or equal to -0.2
Result: false (0)

Ask: # check: selective drug sensitivity score of Cc1cc(F)c(C(=O)Nc2cccc(-c3nncn3C(C)C)n2)cc1-n1cnc(C2CC2)c1 [Selonsertib] (top concentration 1000 nM) is greater than or equal to -0.2
Result: true (1)
